experimental details: HCV replicon assay (luciferase reporter, ET cell line)
Type: cell-based
test conditions: Hepatitis C virus, HCV replicon luciferase activity in ET cells
The label depends only on inhibition at 10 µM: fulfilled if it is at least 90%, not fulfilled if it is smaller.

>>> print(df.to_string())
                                   molecule       category
0  O=C(NCc1cccs1)c1nc2c(C(F)(F)F)cc(-c3ccc[nH]3)cn2c1Cl  not fulfilled
1  O=C(NCc1cccs1)c1[nH]c2c(C(F)(F)F)cc(-c3ccccc3)cc2c1Cl  not fulfilled
2  N#Cc1ccccc1C1=CCN(C(=O)c2nc3c(C(F)(F)F)cc(-c4ccoc4)cn3c2Cl)CC1      fulfilled
3  O=C(c1nc2c(C(F)(F)F)cc(-c3ccoc3)cn2c1Cl)N1CCN(c2cccc(F)c2)CC1  not fulfilled
4  O=C(c1nc2c(C(F)(F)F)cc(-c3ccoc3)cn2c1Cl)N1CCC(c2ccc(C(F)(F)F)cc2)C1 (centres unmarked)  not fulfilled
5  O=C(c1nc2c(C(F)(F)F)cc(-c3ccoc3)cn2c1Cl)N1CC=C(c2ccoc2)C1      fulfilled
6  O=C(c1nc2c(C(F)(F)F)cc(-c3ccco3)cn2c1Cl)N1CCC(c2ccccc2)C1 (centres unmarked)      fulfilled
